# credit: patent US20240423977A1

- target desc: IRAK4 protein in THP-1 cells (Homo sapiens (Human), UniProt Q9NWZ3)
- Sequence (Q9NWZ3 whole entry): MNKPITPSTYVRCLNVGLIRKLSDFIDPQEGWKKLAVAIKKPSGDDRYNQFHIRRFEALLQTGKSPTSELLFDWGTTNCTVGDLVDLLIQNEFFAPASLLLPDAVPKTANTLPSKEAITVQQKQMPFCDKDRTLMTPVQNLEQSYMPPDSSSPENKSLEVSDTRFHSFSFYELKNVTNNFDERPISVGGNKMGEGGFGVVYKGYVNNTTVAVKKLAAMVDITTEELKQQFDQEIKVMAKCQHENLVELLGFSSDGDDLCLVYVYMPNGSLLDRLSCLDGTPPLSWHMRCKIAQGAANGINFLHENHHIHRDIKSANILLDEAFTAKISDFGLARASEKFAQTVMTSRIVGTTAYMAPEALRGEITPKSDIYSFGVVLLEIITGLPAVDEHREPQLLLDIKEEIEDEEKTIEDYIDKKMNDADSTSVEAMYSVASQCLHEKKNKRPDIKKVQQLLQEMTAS
- assay remarks: PROTAC-induced IRAK4 protein degradation in THP-1 cells (Western Blot)
- Assay type: cell-based
- condition description: concentration that degraded 50% of IRAK4, Western blotting, 24 hours after administration
- Procedure: 2.1 Based on the experimental method of Western Blot, specific antibodies were used to stain the THP-1 cell samples treated by gel electrophoresis, and the degrading activity of the compounds on the IRAK4 protein in THP-1 cells was determined by analyzing the position and depth of staining. The concentrations of compound for the detection included 0 μM, 0.3 μM, 1 μM and 3 μM, and the cells were treated by the compound for 8 hours, 16 hours, 24 hours, and 48 hours. […]
compounds and their reported DC50

compound: COc1cc2nn(C3CC4CCC(C3)N4CC(=O)N3CCN(c4ccc5c(c4)C(=O)N(C4CCC(=O)NC4=O)C5=O)CC3)cc2cc1NC(=O)c1cccc(C(F)(F)F)n1 (stereo not drawn) [II-13]
value modifier: =
DC50, nM: 478
--
compound: COc1cc2nn(C3CC4(CCN(C(=O)C5CCN(c6cc7c(cc6F)C(=O)N(C6CCC(=O)NC6=O)C7=O)CC5)CC4)C3)cc2cc1NC(=O)c1cccc(N2CCOCC2)n1 (stereo not drawn) [Compound I-46]
value modifier: =
DC50, nM: 9.15
--
compound: COc1cc2nn(C3CC4(CCN(C(=O)C5CCN(c6ccc7c(c6)C(=O)N(C6CCC(=O)NC6=O)C7=O)CC5)CC4)C3)cc2cc1NC(=O)c1cccc(C(F)F)n1 (stereo not drawn) [Compound I-42]
value modifier: =
DC50, nM: 1.2
--
compound: COc1cc2nn(C3CC4(CCN(C(=O)C5CCN(c6cc7c(cc6F)C(=O)N([C@@H]6CCC(=O)NC6=O)C7=O)CC5)CC4)C3)cc2cc1NC(=O)c1cccc(C(F)(F)F)n1 [Compound I-62]
value modifier: =
DC50, nM: 3.26
--
compound: COc1cc2nn(C3CC4(CCN(C(=O)C5CCN(c6ccc7c(c6)C(=O)N(C6CCC(=O)NC6=O)C7=O)CC5)CC4)C3)cc2cc1NC(=O)c1cccc(N2CC3CC2CO3)n1 (stereo not drawn) [Compound I-52]
value modifier: =
DC50, nM: 3.9
--
compound: COc1cc2nn([C@H]3C[C@@H]4CN(C(=O)C5CCN(c6ccc7c(c6)C(=O)N(C6CCC(=O)NC6=O)C7=O)CC5)C[C@@H]4C3)cc2cc1NC(=O)c1cccc(C(F)(F)F)n1 (stereo partly drawn) [Compound I-28]
value modifier: =
DC50, nM: 8.3
--
compound: COc1cc2nn(C3CC4(CCN(C(=O)[C@H]5CC[C@H](Oc6ccc7c(c6)C(=O)N(C6CCC(=O)NC6=O)C7=O)CC5)CC4)C3)cc2cc1NC(=O)c1cccc(C(F)(F)F)n1 (stereo partly drawn) [Compound I-31]
value modifier: =
DC50, nM: 47.3
--
compound: O=C1CCC(N2C(=O)c3ccc(N4CCC(C(=O)N5CCC6(CC5)CC(n5cc7cc(NC(=O)c8cccc(C(F)(F)F)n8)c(C(=O)O)cc7n5)C6)CC4)cc3C2=O)C(=O)N1 (stereo not drawn) [Compound I-48]
value modifier: >
DC50, nM: 1000
--
compound: COc1cc2nn(C3CC4(CCN(C(=O)C5CCN(c6cccc7c6C(=O)N(C6CCC(=O)NC6=O)C7=O)CC5)CC4)C3)cc2cc1NC(=O)c1cccc(C(F)(F)F)n1 (stereo not drawn) [Compound I-25]
value modifier: >
DC50, nM: 1000
--
compound: COc1cc2nn(C3CCC4(CC3)CCN(C(=O)C3CCN(c5ccc6c(c5)C(=O)N(C5CCC(=O)NC5=O)C6=O)CC3)CC4)cc2cc1NC(=O)c1cccc(C(F)(F)F)n1 (stereo not drawn) [Compound I-27]
value modifier: =
DC50, nM: 6.9
--
compound: COc1cc2nn(C3CCC4(CC3)CN(C(=O)C3CCN(c5ccc6c(c5)C(=O)N(C5CCC(=O)NC5=O)C6=O)CC3)C4)cc2cc1NC(=O)c1cccc(C(F)(F)F)n1 (stereo not drawn) [Compound I-19]
value modifier: =
DC50, nM: 1.78
--
compound: COc1cc2nn(C3CC4(CCN(C(=O)C5CCN(c6ccc7c(c6)C(=O)N([C@H]6CCC(=O)NC6=O)C7=O)CC5)CC4)C3)cc2cc1NC(=O)c1cccc(C(F)(F)F)n1 [Compound I-65]
value modifier: =
DC50, nM: 3.71
